Recorded pIC50 by entry
# experimentalSystem: EGFR (Homo sapiens)
# Sequence (P00533 25-1210): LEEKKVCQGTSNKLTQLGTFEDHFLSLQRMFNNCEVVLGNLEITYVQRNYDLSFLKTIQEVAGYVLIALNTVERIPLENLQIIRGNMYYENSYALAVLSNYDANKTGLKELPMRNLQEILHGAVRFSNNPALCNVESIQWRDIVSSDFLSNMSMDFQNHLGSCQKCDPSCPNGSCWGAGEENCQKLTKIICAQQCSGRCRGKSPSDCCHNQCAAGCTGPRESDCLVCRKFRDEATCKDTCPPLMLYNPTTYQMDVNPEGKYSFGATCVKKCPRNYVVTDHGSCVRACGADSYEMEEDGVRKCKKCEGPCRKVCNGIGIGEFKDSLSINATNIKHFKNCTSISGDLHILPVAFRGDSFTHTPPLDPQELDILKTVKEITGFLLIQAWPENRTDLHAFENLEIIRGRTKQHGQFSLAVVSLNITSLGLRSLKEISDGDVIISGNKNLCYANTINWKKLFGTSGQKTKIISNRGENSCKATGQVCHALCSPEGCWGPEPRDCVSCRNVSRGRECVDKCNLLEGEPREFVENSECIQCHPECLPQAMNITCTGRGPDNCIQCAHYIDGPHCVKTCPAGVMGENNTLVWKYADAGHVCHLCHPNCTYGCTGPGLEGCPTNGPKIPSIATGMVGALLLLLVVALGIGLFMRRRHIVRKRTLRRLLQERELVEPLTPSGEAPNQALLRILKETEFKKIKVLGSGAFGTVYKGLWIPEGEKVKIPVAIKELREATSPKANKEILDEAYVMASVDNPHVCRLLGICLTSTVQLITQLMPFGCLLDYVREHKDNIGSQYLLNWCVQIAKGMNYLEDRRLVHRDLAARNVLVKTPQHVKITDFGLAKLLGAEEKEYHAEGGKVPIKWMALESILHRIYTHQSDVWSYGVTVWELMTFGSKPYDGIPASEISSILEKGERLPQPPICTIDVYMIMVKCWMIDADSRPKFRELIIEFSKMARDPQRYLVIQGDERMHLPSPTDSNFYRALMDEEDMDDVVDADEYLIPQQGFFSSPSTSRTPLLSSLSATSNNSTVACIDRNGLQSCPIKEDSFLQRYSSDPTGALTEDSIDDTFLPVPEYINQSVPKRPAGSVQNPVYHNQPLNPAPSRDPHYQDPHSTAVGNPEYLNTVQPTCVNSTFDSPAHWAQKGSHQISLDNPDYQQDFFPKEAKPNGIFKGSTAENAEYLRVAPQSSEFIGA
# measurementProtocol: Inhibition of a panel of kinases, in vitro HotSpot kinase assay: EGFR
# Format: biochemical
# assayConditions: D-compounds panel data; 1 μM ATP
pIC50: −log10 of the molar value.

Here are 3 molecules together with their reported answers.
| molecule | attributeMeasured | result |
| --- | --- | --- |
| C[C@@H]1[C@H](NC(=O)c2ccc(C(C)(C)F)cc2)CCCN1c1cnc(C(N)=O)c(Nc2cnn(C)c2)n1 | pIC50 | 5.00 to 6.00 |
| C[C@@H]1[C@H](NC(=O)c2ccc(C(C)(C)C)cc2)CCCN1c1cnc(C(N)=O)c(Nc2ccc(OC3CCN(C)CC3)cc2)n1 | pIC50 | 6.00 to 7.00 |
| Cc1cc(Nc2nc(N3C[C@H](NC(=O)c4ccc(C5CC5)cc4F)CC[C@H]3C)cnc2C(N)=O)sn1 | pIC50 | 5.00 to 6.00 |

Exercise: Would you mind telling me what pIC50 value was observed for C[C@@H]1[C@H](NC(=O)c2ccc(C3CC3)cc2)CCCN1c1cnc(C(N)=O)c(Nc2cnn(C3CCN(CC(F)(F)F)CC3)c2)n1 ?
Key: < 5.00

Exercise: Would you mind telling me what pIC50 value was observed for C[C@@H]1[C@H](NC(=O)c2ccc(OC(F)(F)F)cc2)CCCN1c1cnc(C(N)=O)c(Nc2cnn(C)c2)n1 ?
Key: 6.00 to 7.00

Exercise: Would you mind telling me what pIC50 value was observed for Cc1c(Nc2nc(N3CCC[C@@H](NC(=O)c4ccc(C5CC5)cc4)[C@H]3C)cnc2C(N)=O)cnn1C ?
Key: 5.00 to 6.00

Exercise: Would you mind telling me what pIC50 value was observed for Cn1cc(Nc2nc(N3CCC[C@@H]4[C@H]3CCN4C(=O)c3ccc(C4CC4)cc3)cnc2C(N)=O)cn1 ?
Key: 6.00 to 7.00

Exercise: Would you mind telling me what pIC50 value was observed for C[C@@H]1[C@H](NC(=O)c2cc(C(C)(C)C)n[nH]2)CCCN1c1cnc(C(N)=O)c(Nc2cnn(C)c2)n1 ?
Key: 5.00 to 6.00

Exercise: Would you mind telling me what pIC50 value was observed for CC(C)n1nnc2cc(C(=O)N[C@@H]3CCCN(c4cnc(C(N)=O)c(Nc5cnn(C)c5)n4)[C@@H]3C)ccc21 ?
Key: 5.00 to 6.00

Exercise: Would you mind telling me what pIC50 value was observed for C[C@@H]1[C@H](NC(=O)c2ccc(C3CC3)cc2)CCCN1c1nnc(C(N)=O)c(Nc2cnn(C)c2)n1 ?
Key: 5.00 to 6.00

Exercise: Would you mind telling me what pIC50 value was observed for COC(C)(C)c1ccc(C(=O)N[C@@H]2CCCN(c3cnc(C(N)=O)c(Nc4cnn(C)c4)n3)[C@@H]2C)cc1 ?
Key: 5.00 to 6.00

Exercise: Would you mind telling me what pIC50 value was observed for C[C@@H]1[C@H](NC(=O)c2ccc(C3CC3)cc2)CCCN1c1cnc(C(N)=O)c(Nc2cnn(C3CCN(C(=O)C4CC4)CC3)c2)n1 ?
Key: 5.00 to 6.00

Exercise: Would you mind telling me what pIC50 value was observed for C[C@@H]1[C@H](NC(=O)c2ccc(C3(C)COC3)cc2)CCCN1c1cnc(C(N)=O)c(Nc2cnn(C)c2)n1 ?
Key: 5.00 to 6.00

Exercise: Would you mind telling me what pIC50 value was observed for C[C@@H]1[C@H](NC(=O)N(C)C)CCCN1c1cnc(C(N)=O)c(Nc2cc(CN3CCOCC3)ns2)n1 ?
Key: 5.00 to 6.00

====

# experimentalSystem: LCK (Homo sapiens, UniProt P06239)
# Sequence (P06239 whole entry): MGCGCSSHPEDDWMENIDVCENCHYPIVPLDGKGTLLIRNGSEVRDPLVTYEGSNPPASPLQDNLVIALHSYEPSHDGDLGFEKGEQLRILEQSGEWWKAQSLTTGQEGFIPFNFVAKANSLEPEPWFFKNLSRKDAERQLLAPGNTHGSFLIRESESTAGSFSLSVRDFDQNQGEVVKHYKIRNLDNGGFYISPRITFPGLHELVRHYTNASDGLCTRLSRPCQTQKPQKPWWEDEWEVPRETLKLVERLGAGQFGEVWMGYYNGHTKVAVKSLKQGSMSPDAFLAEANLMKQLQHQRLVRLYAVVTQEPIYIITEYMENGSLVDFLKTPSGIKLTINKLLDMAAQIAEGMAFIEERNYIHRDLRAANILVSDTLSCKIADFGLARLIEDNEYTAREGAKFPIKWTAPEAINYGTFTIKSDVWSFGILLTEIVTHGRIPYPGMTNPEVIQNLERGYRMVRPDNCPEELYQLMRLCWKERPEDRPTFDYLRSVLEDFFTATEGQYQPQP
# measurementProtocol: Inhibition of a panel of kinases, in vitro HotSpot kinase assay: LCK
# Type: biochemical
# assayConditions: D-compounds panel data; 1 μM ATP; read-out: IC50 LCK
pIC50: −log10 of the molar value.
attributeMeasured: pIC50

Here are 5 compounds together with their reported answers.
| compound | attributeMeasured | result |
| --- | --- | --- |
| C[C@@H]1[C@H](NC(=O)c2ccc(C3CC3)cc2F)CCCN1c1cnc(C(N)=O)c(Nc2ccc(N3CCN(C)CC3)c(F)c2)n1 | pIC50 | 7.00 to 8.00 |
| C[C@@H]1[C@H](NC(=O)N(C)C)CCCN1c1cnc(C(N)=O)c(Nc2ccc(CN3CCN(C)CC3)cc2)c1 | pIC50 | 5.00 to 6.00 |
| C[C@@H]1[C@H](NC(=O)c2ccc(C3CC3)cc2)CCCN1c1cnc(C(N)=O)c(Nc2ccc(N3CCC(C(C)(C)O)CC3)cc2)n1 | pIC50 | 6.00 to 7.00 |
| CN(C)C(=O)N[C@H]1CCCN(c2cnc(C(N)=O)c(Nc3ccc(C4(C)CCN(C5CCCC5)CC4)cc3)n2)[C@H]1CO | pIC50 | 5.00 to 6.00 |
| C[C@@H]1[C@H](NC(=O)c2ccc(C(C)(C)C)cc2F)CCCN1c1cnc(C(N)=O)c(Nc2cnn(C)c2)n1 | pIC50 | 6.00 to 7.00 |

Exercise: Would you mind telling me what pIC50 value was observed for COC(C)(C)c1ccc(C(=O)N[C@@H]2CCCN(c3cnc(C(N)=O)c(Nc4cnn(C)c4)n3)[C@@H]2C)cc1 ?
Key: 6.00 to 7.00

Exercise: Would you mind telling me what pIC50 value was observed for C[C@@H]1[C@H](NC(=O)c2ccc(C3CC3)cc2)CCCN1c1cnc(C(N)=O)c(Nc2cnn(C)c2F)n1 ?
Key: 5.00 to 6.00

Exercise: Would you mind telling me what pIC50 value was observed for Cc1nc2cc(C(=O)N[C@@H]3CCCN(c4cnc(C(N)=O)c(Nc5cnn(C)c5)n4)[C@@H]3C)ccc2[nH]1 ?
Key: 7.00 to 8.00

Exercise: Would you mind telling me what pIC50 value was observed for CN1CCN(c2ccc(Nc3nc(N4CCC[C@@H](n5ccc6cc(C7CC7)ccc6c5=O)C4)cnc3C(N)=O)cc2)CC1 ?
Key: 6.00 to 7.00

Exercise: Would you mind telling me what pIC50 value was observed for Cc1ccc(-c2cnc([C@@H]3CCCN(c4cnc(C(N)=O)c(Nc5cc(C)ns5)n4)[C@@H]3C)[nH]2)cc1 ?
Key: 6.00 to 7.00

Exercise: Would you mind telling me what pIC50 value was observed for C[C@@H]1[C@H](NC(=O)c2ccc(C3CC3)cc2F)CCCN1c1cnc(C(N)=O)c(Nc2cc(CN(C)C)ns2)n1 ?
Key: 7.00 to 8.00

Exercise: Would you mind telling me what pIC50 value was observed for C[C@@H]1[C@H](NC(=O)c2ccc(C3CC3)c(Cl)c2)CCCN1c1cnc(C(N)=O)c(Nc2ccc(N3CCN(C)CC3)cc2)n1 ?
Key: 6.00 to 7.00

Exercise: Would you mind telling me what pIC50 value was observed for Cn1cc(Nc2nc(N3CC(NC(=O)c4ccc(C5CC5)cc4)CC(F)(F)C3)cnc2C(N)=O)cn1 (stereo in doubt) ?
Key: 6.00 to 7.00

Exercise: Would you mind telling me what pIC50 value was observed for C[C@@H]1[C@H](NC(=O)c2ccc(C3CC3)cc2F)CCCN1c1cnc(C(N)=O)c(Nc2ccc(C3(C)CCN(C4CC4)CC3)cc2)n1 ?
Key: 7.00 to 8.00

Exercise: Would you mind telling me what pIC50 value was observed for C[C@H]1C[C@H](NC(=O)c2ccc(C3CC3)cc2)CN(c2cnc(C(N)=O)c(Nc3cnn(C)c3)n2)C1 ?
Key: < 5.00

Exercise: Would you mind telling me what pIC50 value was observed for Cc1cc(Nc2cc(N3CCC[C@@H](NC(=O)c4ccc(C5CC5)cc4F)[C@H]3C)cnc2C(N)=O)sn1 ?
Key: 7.00 to 8.00

Exercise: Would you mind telling me what pIC50 value was observed for C[C@@H]1[C@H](NC(=O)c2ccc(C3CC3)cc2)CCCN1c1cnc(C(N)=O)c(Nc2ccc(C3(C)CCN(C4CCCC4)CC3)cc2)n1 ?
Key: > 8.00

====

# experimentalSystem: BTK-WT (Homo sapiens)
# Construct: purified from insect cells as a full-length construct containing an N-terminal 6X-His tag; His6 (N); made in house; host or cells: insect cells (baculovirus Sf21 in Method B)
# Sequence (Q06187 whole entry): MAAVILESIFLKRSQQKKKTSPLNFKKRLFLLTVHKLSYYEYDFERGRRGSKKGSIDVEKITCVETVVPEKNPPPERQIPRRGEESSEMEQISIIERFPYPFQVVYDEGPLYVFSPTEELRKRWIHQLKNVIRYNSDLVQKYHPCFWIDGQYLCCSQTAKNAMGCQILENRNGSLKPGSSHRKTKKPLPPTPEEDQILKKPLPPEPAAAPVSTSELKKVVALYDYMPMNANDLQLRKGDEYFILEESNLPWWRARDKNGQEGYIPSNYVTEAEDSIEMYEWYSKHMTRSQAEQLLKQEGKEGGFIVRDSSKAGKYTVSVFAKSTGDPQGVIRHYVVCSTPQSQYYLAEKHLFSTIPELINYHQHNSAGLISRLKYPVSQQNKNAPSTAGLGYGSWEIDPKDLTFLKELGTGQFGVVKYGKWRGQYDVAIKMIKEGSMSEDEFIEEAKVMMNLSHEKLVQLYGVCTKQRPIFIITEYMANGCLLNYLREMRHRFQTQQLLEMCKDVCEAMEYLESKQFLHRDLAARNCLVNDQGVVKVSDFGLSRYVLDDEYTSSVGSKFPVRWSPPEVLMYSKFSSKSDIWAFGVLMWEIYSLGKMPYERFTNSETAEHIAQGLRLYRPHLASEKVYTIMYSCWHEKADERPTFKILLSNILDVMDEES
# measurementProtocol: Btk in vitro inhibitory activity (one of Method A TR-FRET, Method B electrophoretic mobility shift, Method C radiometric filter binding)
# Type: biochemical
# assayConditions: D-compounds panel data; read-out: IC50 BTK-WT
attributeMeasured: IC50

| molecule | experimentalSystem | result |
| --- | --- | --- |
| C[C@@H]1C[C@H](NC(=O)c2ccc(C3CC3)cc2)CN(c2cnc(C(N)=O)c(Nc3cnn(C)c3)n2)C1 | BTK-WT (Homo sapiens) | 100 to 1000 nM |
| CCOCCOc1ccc(Nc2nc(N3CCC[C@@H](NC(=O)c4ccc(C5CC5)cc4)[C@H]3C)cnc2C(N)=O)cc1 | BTK-WT (Homo sapiens) | 10 to 100 nM |
| CC1COc2cc(C(=O)N[C@@H]3CCCN(c4cnc(C(N)=O)c(Nc5cnn(C)c5)n4)[C@@H]3C)ccc2C1 (some centres unmarked) | BTK-WT (Homo sapiens) | ≤ 10 nM |
| CN1CCC(n2cc(Nc3nc(N4CCC[C@@H](n5ccc6cc(C7CC7)ccc6c5=O)C4)cnc3C(N)=O)cn2)CC1 | BTK-WT (Homo sapiens) | ≤ 10 nM |

Exercise: State its IC50 on BTK-WT (Homo sapiens): Cn1cc(Nc2nc(N3C[C@@H](NC(=O)c4ccc(C5CC5)cc4)CC(F)(F)C3)cnc2C(N)=O)cn1
Key: 100 to 1000 nM

Exercise: State its IC50 on BTK-WT (Homo sapiens): C[C@H]1CC[C@@H](NC(=O)c2ccc(C3CC3)cc2)CN1c1cnc(C(N)=O)c(Nc2cnn(C)c2)n1
Key: ≤ 10 nM

Exercise: State its IC50 on BTK-WT (Homo sapiens): C[C@@H]1[C@H](NC(=O)c2ccc(C(C)(C)F)cc2)CCCN1c1cnc(C(N)=O)c(Nc2cnn(C)c2)n1
Key: ≤ 10 nM

Exercise: State its IC50 on BTK-WT (Homo sapiens): Cc1cc(Nc2nc(N3CCCC(c4ncc(-c5ccccc5)[nH]4)C3)cnc2C(N)=O)sn1 (centres unmarked)
Key: 10 to 100 nM

Exercise: State its IC50 on BTK-WT (Homo sapiens): C[C@@H]1[C@H](NC(=O)c2ccc(C(F)(F)F)cc2)CCCN1c1cnc(C(N)=O)c(Nc2ccc(N3CCN(C)CC3)cc2)n1
Key: ≤ 10 nM
